- EXPERIMENTAL_TARGET: Cathepsin K (Homo sapiens, UniProt P43235)
- Sequence (P43235 115-329): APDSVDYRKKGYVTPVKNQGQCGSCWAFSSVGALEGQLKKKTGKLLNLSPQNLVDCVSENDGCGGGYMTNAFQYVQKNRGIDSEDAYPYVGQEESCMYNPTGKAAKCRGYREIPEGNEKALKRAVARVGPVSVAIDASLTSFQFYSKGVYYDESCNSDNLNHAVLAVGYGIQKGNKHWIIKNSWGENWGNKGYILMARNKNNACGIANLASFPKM
- PROTOCOL_DESCRIPTION: Study of Cathepsin K inhibition (fluorescence, Z-Val-arg-AMC)
- Assay type: biochemical
- CONDITION_LABEL: substrate Z-Val-arg-AMC 20 μM, enzyme 5 ng/ml, 2H at ambient temperature; read-out: Cathepsin K IC50
# IC50 annotations
OBSERVED_PROPERTY: IC50 (µM)

>>> data_value("C[C@H](NC(=O)[C@@H]1CCCN2C(=O)CC[C@H](NC(=O)Nc3ccc(Oc4ccccc4)cc3)C(=O)N12)C(=O)CSc1nc2ccccc2s1 [Example 450]")
20
>>> data_value("C[C@H](NC(=O)[C@@H]1CCCN2C(=O)CC[C@H](NC(=O)NCCc3cccs3)C(=O)N12)C(=O)C=[N+]=[N-] [Example 172]")
20
>>> data_value("C=CCOC(=O)CC[C@H](NC(=O)[C@@H]1CCCN2C(=O)CCC[C@H](NC(=O)Nc3ccc(Oc4ccccc4)cc3)C(=O)N12)C(=O)COC(C)=O [Example 133]")
20
>>> data_value("CC(C)[C@H](NC(=O)[C@@H]1CCCN2C(=O)CC[C@H](NC(=O)NC3CCCCC3)C(=O)N12)C(=O)CSc1nc2ccccc2s1 [Example 382]")
20
>>> data_value("O=C(Nc1ccc(Oc2ccccc2)cc1)N[C@H]1CCC(=O)N2CCC[C@@H](C(=O)N[C@@H](Cc3ccccc3)C(=O)CN3CCC(Cc4ccccc4)CC3)N2C1=O [Example 218]")
20
>>> data_value("C=CCOC(=O)CC[C@H](NC(=O)[C@@H]1CCCN2C(=O)CC[C@H](NC(=O)Nc3ccc(Oc4ccccc4)cc3)C(=O)N12)C(=O)COC(=O)Cc1ccsc1 [Example 134]")
20
>>> data_value("O=C(NCCc1cccs1)N[C@H]1CCC(=O)N2CCC[C@@H](C(=O)N[C@@H](Cc3ccccc3)C(=O)CSc3nc4ccccc4s3)N2C1=O [Example 221]")
20
